Biological target: COUP transcription factor 2 (Homo sapiens) (UniProt P24468)
Sequence (P24468 whole entry, looked up): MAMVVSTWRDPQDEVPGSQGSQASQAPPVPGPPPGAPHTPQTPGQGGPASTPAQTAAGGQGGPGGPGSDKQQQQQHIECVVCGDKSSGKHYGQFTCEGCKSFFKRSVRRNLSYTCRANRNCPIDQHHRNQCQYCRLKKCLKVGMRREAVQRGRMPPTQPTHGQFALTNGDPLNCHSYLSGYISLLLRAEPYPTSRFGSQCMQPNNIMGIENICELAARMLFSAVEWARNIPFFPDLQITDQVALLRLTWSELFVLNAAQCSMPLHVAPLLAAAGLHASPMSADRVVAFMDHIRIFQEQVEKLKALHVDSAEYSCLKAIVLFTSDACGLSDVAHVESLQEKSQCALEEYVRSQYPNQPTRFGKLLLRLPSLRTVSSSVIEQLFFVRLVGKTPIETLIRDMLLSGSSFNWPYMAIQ
Test: COUP-TFII reporter suppression in human cells – cell-based, luciferase reporter, HEK293T, luminescence, primary screen (AID 686940);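 also: cells cotransfected with COUP-TFII expression vector driving the NGFI-A reporter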
Details: HEK293T NGFI-A luciferase reporter, at 8.6 µM
Screen size: about 370,000 compounds; about 2,600 (0.7%) were called active.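 The calls were made as follows: active = inhibition above a per-plate cutoff, mean inhibition of test wells between control levels plus 3 SD (cut at about 38% in these data); inactive = the rest.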 The full list was thinned out, with actives kept by preference.
Outcomes: active, inactive

> print(dat)
                                    compound  classification
 1  Cc1ccc(CNC(=O)Nc2nnc([C@H]3C[C@H](O)[C@@H](CO)O3)s2)cc1          active
 2  C[C@H](C(=O)N(C)c1ccccc1)[C@@H](O)c1ccc2ccccc2c1        inactive
 3  COc1cc(C(=O)NCc2nnc(SCC(=O)c3ccc(Cl)cc3)o2)cc(OC)c1OC        inactive
 4  COC(=O)[C@H](C(C)C)N(CCCc1cn(Cc2ccccc2)nn1)S(=O)(=O)c1ccc(F)cc1Br        inactive
 5  COc1cccc(N2CCN(CC(=O)N(C)Cc3ccc(F)cc3)CC2)c1        inactive
 6  COc1ccc(C(=O)Nc2ccccc2C(=O)N/N=C/c2ccc(O)c(OC)c2)cc1          active
 7  CCOC(=O)C1=C(N)N2C(=O)C(C)SC2=C(C(=O)OCC)C1c1cc(OC)c(OC)c(OC)c1 (stereo not given)        inactive
 8                Cc1csc(NC(=O)CN2CCCCCC2)n1        inactive
 9  C=CCN(C(=O)[C@@H](CCCC)[C@@H](O)c1ccc(Cl)cc1)c1ccccc1        inactive
10  C=CCOc1ccc(C(=O)Nc2ccccc2C(=O)N2CCCC2)cc1        inactive
11            CC(=O)Oc1ccc(C(=O)Nc2nccs2)cc1        inactive
12  COC(=O)C1CN(CC(C)C)CCS(=O)(=O)N1Cc1ccc(C)cc1 (stereo not given)        inactive
13  CN(C)CC(=O)N[C@@H]1C[C@@H]2O[C@H](CO)CC[C@@H]2O[C@@H]1CCc1ccc(C#Cc2ccccc2)cc1        inactive
14  CC(C)(C)OC(=O)NCCc1ccccc1/C=C/S(=O)(=O)NCc1ccc(F)cc1        inactive
15  CC(=O)OCCN1CCCC12CCC(c1ccccc1)CC2 (stereo not given)        inactive
16  O=C(Nc1ccc(N2CCOCC2)c(Cl)c1)c1ccc(S(=O)(=O)N2CCOCC2)cc1        inactive
17  CCOC(=O)N1CCN(C(=O)C2CCCN(c3ncnc4c3sc3cccc(F)c34)C2)CC1 (stereo not given)        inactive
18  COc1cc(C(=O)Nc2cc(C(F)(F)F)ccc2N2CCOCC2)ccc1O        inactive
19  COc1ccc(-c2nn(C)c(=O)c3ccccc23)cc1NC(=O)COc1ccccc1        inactive
20  CCCCNC(=O)C[C@@H]1C(=O)N(CCc2ccc(Cl)cc2)C2=CCCC[C@]21C(=O)OCC        inactive
21  CCCOC(=O)c1[nH]c2c(c1C)C(=O)CC(c1cc(OC)c(OC)c(OC)c1)C2 (stereo not given)          active
22  COC(=O)[C@]12C[C@H](CC(=O)N3CCOCC3)C(=O)N(Cc3ccc(Cl)cc3Cl)C1=C[C@H](C(C)C)O[C@@H]2C1CC1        inactive
23  COc1ccccc1NC(=O)CSc1nnc(CNC(=O)c2ccccc2F)o1        inactive
24  Cc1ccc(-n2c(COc3ccccc3)nnc2SCC(=O)Nc2ccc3c(c2)OCCO3)cc1        inactive
25       COc1cc(C(=O)OCCCN2CCOCC2)cc(OC)c1OC        inactive
26  CN(C(N)=NC(=O)/C=C/c1ccccc1)C(C#Cc1ccccc1)Cc1ccccc1 (stereo not given)        inactive
27  C=CCN1C(=O)[C@H](CC(=O)N2CCN(C(=O)OCC)CC2)[C@@]2(C(=O)OCC)CCCC=C12        inactive
28  Cc1ccc(F)cc1NC(=O)Cc1nn(C)c(=O)c2ccccc12          active
29  O=S(=O)(c1ccccc1)N1CCC(c2nc3ccccc3o2)CC1        inactive
30    NC(=O)c1sc2nc3c(c(-c4ccccc4)c2c1N)CCC3          active
